Just for reference, paper PMC11909324 is where these values come from.

# targetOfAssay: xanthine oxidase (XO) (Bos taurus, UniProt P80457)
# Construct: XO (from bovine milk); purchased Merck (Darmstadt, Germany); host or cells: bovine milk (natural source)
# Sequence (P80457 whole entry): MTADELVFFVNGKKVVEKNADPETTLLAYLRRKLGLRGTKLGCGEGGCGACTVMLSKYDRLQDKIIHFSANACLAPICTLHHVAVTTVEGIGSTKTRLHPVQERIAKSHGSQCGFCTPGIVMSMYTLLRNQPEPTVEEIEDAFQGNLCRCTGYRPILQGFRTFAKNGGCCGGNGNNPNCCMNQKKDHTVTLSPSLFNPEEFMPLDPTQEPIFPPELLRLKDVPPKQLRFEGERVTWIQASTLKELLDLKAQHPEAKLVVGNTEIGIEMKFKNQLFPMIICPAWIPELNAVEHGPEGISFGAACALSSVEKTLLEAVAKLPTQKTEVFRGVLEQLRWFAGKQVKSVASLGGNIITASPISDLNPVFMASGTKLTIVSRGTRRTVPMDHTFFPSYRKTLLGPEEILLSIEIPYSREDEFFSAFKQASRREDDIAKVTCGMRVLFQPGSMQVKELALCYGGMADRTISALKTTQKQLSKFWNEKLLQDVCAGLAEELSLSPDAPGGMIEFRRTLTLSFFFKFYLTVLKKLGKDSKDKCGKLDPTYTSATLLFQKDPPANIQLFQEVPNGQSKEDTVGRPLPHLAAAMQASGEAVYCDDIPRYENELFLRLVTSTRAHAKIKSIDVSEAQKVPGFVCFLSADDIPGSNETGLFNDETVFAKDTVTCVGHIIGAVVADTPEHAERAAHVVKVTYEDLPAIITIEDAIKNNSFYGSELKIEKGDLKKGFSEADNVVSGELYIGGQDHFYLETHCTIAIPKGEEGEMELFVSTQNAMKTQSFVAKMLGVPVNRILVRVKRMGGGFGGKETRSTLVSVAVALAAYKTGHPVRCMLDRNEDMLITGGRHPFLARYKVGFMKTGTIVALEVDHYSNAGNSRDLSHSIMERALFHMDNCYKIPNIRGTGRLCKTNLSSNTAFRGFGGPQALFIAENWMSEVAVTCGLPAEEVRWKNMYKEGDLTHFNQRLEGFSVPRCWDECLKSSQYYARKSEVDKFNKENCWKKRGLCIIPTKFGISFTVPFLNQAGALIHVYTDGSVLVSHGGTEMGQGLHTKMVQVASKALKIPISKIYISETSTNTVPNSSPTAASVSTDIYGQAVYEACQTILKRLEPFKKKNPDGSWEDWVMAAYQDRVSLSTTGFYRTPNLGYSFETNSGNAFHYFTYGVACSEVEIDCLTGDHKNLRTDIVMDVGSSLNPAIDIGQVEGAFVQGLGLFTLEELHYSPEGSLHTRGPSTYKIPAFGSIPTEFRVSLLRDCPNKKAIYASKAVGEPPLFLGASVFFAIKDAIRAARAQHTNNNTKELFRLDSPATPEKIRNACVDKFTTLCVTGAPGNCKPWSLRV
# experiment: XO assay with xanthine as substrate (uric acid formation, HPLC-UV);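 also: incubations in 0.05 mol L^−1 sodium phosphate buffer, with uric acid and remaining xanthine both quantified by HPLC-UV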
# Assay type: biochemical, bovine
# measurementParameters: inhibitor 20 μmol L^−1; xanthine 5 μmol L^−1
measure: decrease in uric acid production (inhibition of XO-catalyzed xanthine oxidation)

Lookup: Requested field: decrease in uric acid production (inhibition of XO-catalyzed xanthine oxidation). Item: O=C(O)[C@H]1O[C@@H](Oc2cc(O)cc(/C=C/c3ccc(O)cc3)c2)[C@H](O)[C@@H](O)[C@@H]1O [R3G, resveratrol‐3‐glucuronide]
Found: 10%
